Biological target: Fatty-acid amide hydrolase 1 (Mus musculus)
Sequence (O08914 whole entry): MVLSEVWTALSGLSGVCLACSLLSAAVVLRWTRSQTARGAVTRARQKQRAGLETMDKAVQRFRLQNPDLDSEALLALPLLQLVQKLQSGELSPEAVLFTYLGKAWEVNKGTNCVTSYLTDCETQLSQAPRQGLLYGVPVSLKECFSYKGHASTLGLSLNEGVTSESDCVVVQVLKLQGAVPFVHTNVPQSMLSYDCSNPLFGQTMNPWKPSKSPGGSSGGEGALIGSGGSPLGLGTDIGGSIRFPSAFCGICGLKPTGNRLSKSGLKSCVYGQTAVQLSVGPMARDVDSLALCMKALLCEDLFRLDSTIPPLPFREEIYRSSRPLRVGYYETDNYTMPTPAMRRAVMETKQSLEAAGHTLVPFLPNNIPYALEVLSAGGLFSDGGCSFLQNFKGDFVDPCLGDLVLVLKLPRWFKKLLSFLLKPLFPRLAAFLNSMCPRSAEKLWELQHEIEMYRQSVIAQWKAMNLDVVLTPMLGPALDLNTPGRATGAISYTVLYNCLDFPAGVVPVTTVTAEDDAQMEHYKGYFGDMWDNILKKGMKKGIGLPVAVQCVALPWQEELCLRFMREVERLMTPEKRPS
pKi: −log10 of the molar value.
Endpoint: pKi

Just so you know, measured pKi for `O=C(NCCCCCCc1ccccc1)Oc1cccc(N2CCNCC2)c1` came out at 7.89

Just so you know, measured pKi for `C/C(=N\OC(=O)N1CCCCC1)c1cccc(N2CCN(C)CC2)c1` came out at < 6.30

Just so you know, measured pKi for `CCCCOc1ccc(NC(=O)Oc2cccc(N3CCNCC3)c2)cc1` came out at < 6.30

Just so you know, measured pKi for `CCCCCCCOc1ccc(NC(=O)Oc2cccc(N3CCNCC3)c2)cc1` came out at < 6.30

Just so you know, measured pKi for `NC(=O)c1ccn(-c2cccc(C(=O)N3CCN(CCCCCCc4ccccc4)CC3)c2)c1` came out at < 6.30

Just so you know, measured pKi for `CN1CCN(c2cccc(OC(=O)NCCCCCCc3ccccc3)c2)CC1` came out at 6.62

###

Target: Fatty-acid amide hydrolase 1 (Homo sapiens)
Sequence (O00519 whole entry): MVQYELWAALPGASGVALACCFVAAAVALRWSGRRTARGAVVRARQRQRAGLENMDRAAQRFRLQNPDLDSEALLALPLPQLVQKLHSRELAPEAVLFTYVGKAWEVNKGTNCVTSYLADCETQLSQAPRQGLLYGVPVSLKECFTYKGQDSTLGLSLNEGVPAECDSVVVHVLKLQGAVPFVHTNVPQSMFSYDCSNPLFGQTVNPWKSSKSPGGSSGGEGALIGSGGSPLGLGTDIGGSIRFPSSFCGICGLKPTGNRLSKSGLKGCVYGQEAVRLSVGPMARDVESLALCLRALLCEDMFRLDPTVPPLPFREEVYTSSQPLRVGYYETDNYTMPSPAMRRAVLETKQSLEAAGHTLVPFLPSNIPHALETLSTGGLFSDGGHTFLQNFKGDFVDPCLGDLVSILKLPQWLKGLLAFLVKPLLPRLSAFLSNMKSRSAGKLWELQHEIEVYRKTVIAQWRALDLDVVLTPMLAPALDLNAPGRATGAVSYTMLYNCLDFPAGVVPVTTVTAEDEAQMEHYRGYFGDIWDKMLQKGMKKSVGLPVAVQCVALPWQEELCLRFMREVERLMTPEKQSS
Endpoint: pKi
Notebook: values listed as pKi are -log10 of the concentration (mol/L).

Note to self: pKi of `O=C(NCCCCCCc1ccccc1)Oc1cccc(N2CCNCC2)c1` with Fatty-acid amide hydrolase 1 (Homo sapiens) was 7.59
